These data points were gathered from ChEMBL document CHEMBL5649170.

EXPERIMENTAL DETAILS: Drug concentration in 5XFAD mouse plasma at 75 ppm administered as rodent chow starting from 1.5 months and measured after 5 months
Assay type: ADME, cell-free
APPLIED CONDITIONS: route po, time 3.5 months
TEST READOUT: concentration at 2555 h

>>> result("FC(F)(F)c1ccc(CNc2ccc(Cc3c[nH]c4ncc(Cl)cc34)cn2)cn1")
"15 µM"

###

TARGET OF ASSAY: Glycogen synthase kinase-3 alpha (Homo sapiens, UniProt P49840)
TEST READOUT: IC50

>>> result("COc1ncc(F)cc1CNc1ccc(Cc2c[nH]c3ncc(C)cc23)c(F)n1")
"> 1000 nM"

###

TARGET OF ASSAY: Receptor tyrosine-protein kinase erbB-4 (Homo sapiens)
Sequence (Q15303 whole entry): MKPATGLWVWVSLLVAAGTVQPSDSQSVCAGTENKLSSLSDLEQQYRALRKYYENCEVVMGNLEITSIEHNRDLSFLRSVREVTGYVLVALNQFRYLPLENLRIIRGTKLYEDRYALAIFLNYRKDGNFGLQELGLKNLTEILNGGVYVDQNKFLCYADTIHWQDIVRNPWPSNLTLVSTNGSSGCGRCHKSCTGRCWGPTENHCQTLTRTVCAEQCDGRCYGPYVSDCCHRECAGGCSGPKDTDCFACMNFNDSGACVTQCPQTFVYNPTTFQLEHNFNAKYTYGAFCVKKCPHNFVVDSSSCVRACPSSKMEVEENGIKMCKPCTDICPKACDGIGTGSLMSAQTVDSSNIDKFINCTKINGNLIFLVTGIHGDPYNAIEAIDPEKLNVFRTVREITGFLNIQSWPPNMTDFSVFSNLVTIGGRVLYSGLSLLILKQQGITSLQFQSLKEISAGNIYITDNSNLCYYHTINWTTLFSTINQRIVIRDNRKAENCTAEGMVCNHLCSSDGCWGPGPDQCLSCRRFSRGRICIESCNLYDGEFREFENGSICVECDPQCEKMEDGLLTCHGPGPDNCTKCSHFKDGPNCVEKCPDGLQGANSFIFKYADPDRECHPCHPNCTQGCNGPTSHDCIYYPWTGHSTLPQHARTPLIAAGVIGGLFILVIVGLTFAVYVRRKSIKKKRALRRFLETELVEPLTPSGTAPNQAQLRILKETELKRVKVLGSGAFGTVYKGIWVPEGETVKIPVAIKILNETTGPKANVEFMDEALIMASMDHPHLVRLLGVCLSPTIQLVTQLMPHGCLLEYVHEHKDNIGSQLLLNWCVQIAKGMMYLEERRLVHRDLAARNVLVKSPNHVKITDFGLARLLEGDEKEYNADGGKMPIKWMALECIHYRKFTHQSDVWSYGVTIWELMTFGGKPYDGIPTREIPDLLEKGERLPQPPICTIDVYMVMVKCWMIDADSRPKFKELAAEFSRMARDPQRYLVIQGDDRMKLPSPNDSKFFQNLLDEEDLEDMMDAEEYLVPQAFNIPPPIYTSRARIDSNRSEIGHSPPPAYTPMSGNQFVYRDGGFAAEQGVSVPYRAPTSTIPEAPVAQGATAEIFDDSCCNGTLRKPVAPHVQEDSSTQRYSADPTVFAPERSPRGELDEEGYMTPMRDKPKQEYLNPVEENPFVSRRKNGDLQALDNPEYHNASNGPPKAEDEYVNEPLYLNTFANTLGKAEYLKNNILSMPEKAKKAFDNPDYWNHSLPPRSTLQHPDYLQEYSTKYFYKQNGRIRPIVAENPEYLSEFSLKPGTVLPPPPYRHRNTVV
pIC50: −log10 of the molar value.
TEST READOUT: pIC50

>>> result("COc1ncc(F)cc1CNc1ccc(Cc2c[nH]c3ncc(C)cc23)c(F)n1 [PLX-5622]")
"< 6.00"

###

TARGET OF ASSAY: Serine/threonine-protein kinase PLK3 (Homo sapiens, UniProt Q9H4B4)
TEST READOUT: IC50

>>> result("COc1ncc(F)cc1CNc1ccc(Cc2c[nH]c3ncc(C)cc23)c(F)n1")
"> 1000 nM"

###

TARGET OF ASSAY: CDK7/Cyclin H/MNAT1 (Homo sapiens)
Sequence (P51946 whole entry): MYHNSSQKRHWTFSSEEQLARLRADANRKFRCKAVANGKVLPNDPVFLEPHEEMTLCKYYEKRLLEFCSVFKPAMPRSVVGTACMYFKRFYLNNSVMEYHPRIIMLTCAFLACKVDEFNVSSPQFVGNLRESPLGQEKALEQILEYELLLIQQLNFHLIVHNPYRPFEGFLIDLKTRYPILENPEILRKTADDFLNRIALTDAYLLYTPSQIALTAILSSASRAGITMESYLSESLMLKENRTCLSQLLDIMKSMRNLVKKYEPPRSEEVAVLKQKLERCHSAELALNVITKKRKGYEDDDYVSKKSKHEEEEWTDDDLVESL
Sequence (P50613 whole entry): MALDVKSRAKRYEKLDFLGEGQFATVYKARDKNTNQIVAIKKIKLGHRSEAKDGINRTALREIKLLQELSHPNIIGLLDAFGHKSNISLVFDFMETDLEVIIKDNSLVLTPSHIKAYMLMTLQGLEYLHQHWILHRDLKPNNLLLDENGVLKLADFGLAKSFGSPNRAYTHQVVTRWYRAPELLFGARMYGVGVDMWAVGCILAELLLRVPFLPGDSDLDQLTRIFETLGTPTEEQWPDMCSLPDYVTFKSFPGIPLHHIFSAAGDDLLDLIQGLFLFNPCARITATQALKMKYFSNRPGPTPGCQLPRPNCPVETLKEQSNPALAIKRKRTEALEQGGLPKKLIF
Sequence (P51948 whole entry, further chain): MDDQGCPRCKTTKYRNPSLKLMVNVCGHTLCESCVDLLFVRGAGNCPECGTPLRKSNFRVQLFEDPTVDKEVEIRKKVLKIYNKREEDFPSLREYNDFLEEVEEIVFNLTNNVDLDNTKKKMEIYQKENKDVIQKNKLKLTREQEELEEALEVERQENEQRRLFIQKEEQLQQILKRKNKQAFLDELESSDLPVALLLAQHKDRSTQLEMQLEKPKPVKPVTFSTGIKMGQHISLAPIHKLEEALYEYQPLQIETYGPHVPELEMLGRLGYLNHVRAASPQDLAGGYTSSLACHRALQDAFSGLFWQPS
EXPERIMENTAL DETAILS: Inhibition of CDK7/CyclinH/MNAT1 (unknown origin)
pIC50: −log10 of the molar value.
TEST READOUT: pIC50

>>> result("COc1ncc(F)cc1CNc1ccc(Cc2c[nH]c3ncc(C)cc23)c(F)n1")
"< 6.00"

###

TARGET OF ASSAY: Calcium/calmodulin-dependent protein kinase type II subunit delta (Homo sapiens, UniProt Q13557)
EXPERIMENTAL DETAILS: Inhibition of CAMK2D (unknown origin)
pIC50: −log10 of the molar value.
TEST READOUT: pIC50

>>> result("COc1ncc(F)cc1CNc1ccc(Cc2c[nH]c3ncc(C)cc23)c(F)n1 [PLX-5622]")
"< 6.00"

###

TARGET OF ASSAY: RAC-beta serine/threonine-protein kinase (Homo sapiens, UniProt P31751)
TEST READOUT: IC50

>>> result("COc1ncc(F)cc1CNc1ccc(Cc2c[nH]c3ncc(C)cc23)c(F)n1 [PLX-5622]")
"> 1000 nM"

###

TARGET OF ASSAY: Proto-oncogene tyrosine-protein kinase receptor Ret (Homo sapiens, UniProt P07949)
pIC50: −log10 of the molar value.
TEST READOUT: pIC50

>>> result("COc1ncc(F)cc1CNc1ccc(Cc2c[nH]c3ncc(C)cc23)c(F)n1")
"< 6.00"

###

TARGET OF ASSAY: Calcium/calmodulin-dependent protein kinase type IV (Homo sapiens)
Sequence (Q16566 whole entry): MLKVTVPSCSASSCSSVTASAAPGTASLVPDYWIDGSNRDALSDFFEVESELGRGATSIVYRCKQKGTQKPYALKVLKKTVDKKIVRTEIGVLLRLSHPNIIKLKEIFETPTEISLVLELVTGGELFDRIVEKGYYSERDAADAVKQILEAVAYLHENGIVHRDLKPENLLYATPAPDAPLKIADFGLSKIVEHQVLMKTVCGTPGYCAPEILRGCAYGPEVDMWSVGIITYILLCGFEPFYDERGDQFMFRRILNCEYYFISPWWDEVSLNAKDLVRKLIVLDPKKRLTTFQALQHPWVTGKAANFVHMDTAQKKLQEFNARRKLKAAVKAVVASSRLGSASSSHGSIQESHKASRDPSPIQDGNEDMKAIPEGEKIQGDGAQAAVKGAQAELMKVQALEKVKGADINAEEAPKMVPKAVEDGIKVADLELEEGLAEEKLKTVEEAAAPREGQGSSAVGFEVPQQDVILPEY
EXPERIMENTAL DETAILS: Inhibition of CAMK4 (unknown origin)
TEST READOUT: IC50

>>> result("COc1ncc(F)cc1CNc1ccc(Cc2c[nH]c3ncc(C)cc23)c(F)n1")
"> 1000 nM"

###

TARGET OF ASSAY: Mitogen-activated protein kinase 1 (Homo sapiens, UniProt P28482)
Sequence (P28482 whole entry): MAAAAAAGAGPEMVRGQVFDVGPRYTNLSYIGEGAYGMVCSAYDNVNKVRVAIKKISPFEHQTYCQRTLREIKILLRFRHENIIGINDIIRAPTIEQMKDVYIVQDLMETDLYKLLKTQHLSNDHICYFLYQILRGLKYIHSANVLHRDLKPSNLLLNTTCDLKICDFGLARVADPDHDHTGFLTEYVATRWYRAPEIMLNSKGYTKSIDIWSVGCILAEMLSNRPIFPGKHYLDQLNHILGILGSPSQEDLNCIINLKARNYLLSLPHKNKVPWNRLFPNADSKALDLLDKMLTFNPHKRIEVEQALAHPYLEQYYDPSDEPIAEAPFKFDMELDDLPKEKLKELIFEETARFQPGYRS
EXPERIMENTAL DETAILS: Inhibition of MAPK1 (unknown origin)
TEST READOUT: IC50

>>> result("COc1ncc(F)cc1CNc1ccc(Cc2c[nH]c3ncc(C)cc23)c(F)n1 [PLX-5622]")
"> 1 µM"

###

TARGET OF ASSAY: Homeodomain-interacting protein kinase 4 (Homo sapiens, UniProt Q8NE63)
TEST READOUT: IC50

>>> result("COc1ncc(F)cc1CNc1ccc(Cc2c[nH]c3ncc(C)cc23)c(F)n1 [PLX-5622]")
"> 1 µM"

###

EXPERIMENTAL DETAILS: Half-life in male rat at 1.13 mg/kg, iv administered as single dose
Assay type: ADME, organism-based
APPLIED CONDITIONS: in vivo
TEST READOUT: half-life (h)

>>> result("COc1ncc(F)cc1CNc1ccc(Cc2c[nH]c3ncc(C)cc23)c(F)n1")
2.3

###

TARGET OF ASSAY: Death-associated protein kinase 1 (Homo sapiens)
pIC50: −log10 of the molar value.
TEST READOUT: pIC50

>>> result("COc1ncc(F)cc1CNc1ccc(Cc2c[nH]c3ncc(C)cc23)c(F)n1 [PLX-5622]")
"< 6.00"

###

TARGET OF ASSAY: G protein-coupled receptor kinase 6 (Homo sapiens)
pIC50: −log10 of the molar value.
TEST READOUT: pIC50

>>> result("COc1ncc(F)cc1CNc1ccc(Cc2c[nH]c3ncc(C)cc23)c(F)n1 [PLX-5622]")
"< 6.00"

###

EXPERIMENTAL DETAILS: Drug concentration in 5XFAD mouse plasma at 1200 ppm administered as rodent chow for 180 days
Format: ADME, cell-free
APPLIED CONDITIONS: route po, time 180 day
TEST READOUT: concentration at 4320 h

>>> result("COc1ncc(F)cc1CNc1ccc(Cc2c[nH]c3ncc(C)cc23)c(F)n1 [PLX-5622]")
"9090 ng/mL"

###

EXPERIMENTAL DETAILS: Volume of distribution at steady state in monkey at 1.35 mg/kg, iv administered as single dose
Type: ADME, organism-based, Macaca mulatta
APPLIED CONDITIONS: rhesus monkey, in vivo, read-out: Vdss
TEST READOUT: Vd

>>> result("COc1ncc(F)cc1CNc1ccc(Cc2c[nH]c3ncc(C)cc23)c(F)n1")
"1.6 L/kg"

###

TARGET OF ASSAY: MAP kinase-activated protein kinase 2 (Homo sapiens, UniProt P49137)
Sequence (P49137 whole entry): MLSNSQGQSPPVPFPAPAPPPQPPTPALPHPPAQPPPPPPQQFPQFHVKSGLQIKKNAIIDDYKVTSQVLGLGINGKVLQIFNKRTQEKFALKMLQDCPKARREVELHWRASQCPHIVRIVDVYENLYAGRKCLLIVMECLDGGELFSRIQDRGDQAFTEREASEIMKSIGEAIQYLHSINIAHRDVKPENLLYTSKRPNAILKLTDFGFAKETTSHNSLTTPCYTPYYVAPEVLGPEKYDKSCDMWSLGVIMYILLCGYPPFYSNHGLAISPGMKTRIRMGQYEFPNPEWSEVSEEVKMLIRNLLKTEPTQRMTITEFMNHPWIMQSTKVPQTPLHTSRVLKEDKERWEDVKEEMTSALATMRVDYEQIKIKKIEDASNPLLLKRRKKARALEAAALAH
EXPERIMENTAL DETAILS: Inhibition of MAPKAPK2 (unknown origin)
pIC50: −log10 of the molar value.
TEST READOUT: pIC50

>>> result("COc1ncc(F)cc1CNc1ccc(Cc2c[nH]c3ncc(C)cc23)c(F)n1 [PLX-5622]")
"< 6.00"

###

TARGET OF ASSAY: Serine/threonine-protein kinase TBK1 (Homo sapiens)
EXPERIMENTAL DETAILS: Inhibition of TBK1 (unknown origin)
TEST READOUT: IC50

>>> result("COc1ncc(F)cc1CNc1ccc(Cc2c[nH]c3ncc(C)cc23)c(F)n1 [PLX-5622]")
"> 1 µM"

###

TARGET OF ASSAY: UniProtKB Q16288
Sequence (Q16288 whole entry): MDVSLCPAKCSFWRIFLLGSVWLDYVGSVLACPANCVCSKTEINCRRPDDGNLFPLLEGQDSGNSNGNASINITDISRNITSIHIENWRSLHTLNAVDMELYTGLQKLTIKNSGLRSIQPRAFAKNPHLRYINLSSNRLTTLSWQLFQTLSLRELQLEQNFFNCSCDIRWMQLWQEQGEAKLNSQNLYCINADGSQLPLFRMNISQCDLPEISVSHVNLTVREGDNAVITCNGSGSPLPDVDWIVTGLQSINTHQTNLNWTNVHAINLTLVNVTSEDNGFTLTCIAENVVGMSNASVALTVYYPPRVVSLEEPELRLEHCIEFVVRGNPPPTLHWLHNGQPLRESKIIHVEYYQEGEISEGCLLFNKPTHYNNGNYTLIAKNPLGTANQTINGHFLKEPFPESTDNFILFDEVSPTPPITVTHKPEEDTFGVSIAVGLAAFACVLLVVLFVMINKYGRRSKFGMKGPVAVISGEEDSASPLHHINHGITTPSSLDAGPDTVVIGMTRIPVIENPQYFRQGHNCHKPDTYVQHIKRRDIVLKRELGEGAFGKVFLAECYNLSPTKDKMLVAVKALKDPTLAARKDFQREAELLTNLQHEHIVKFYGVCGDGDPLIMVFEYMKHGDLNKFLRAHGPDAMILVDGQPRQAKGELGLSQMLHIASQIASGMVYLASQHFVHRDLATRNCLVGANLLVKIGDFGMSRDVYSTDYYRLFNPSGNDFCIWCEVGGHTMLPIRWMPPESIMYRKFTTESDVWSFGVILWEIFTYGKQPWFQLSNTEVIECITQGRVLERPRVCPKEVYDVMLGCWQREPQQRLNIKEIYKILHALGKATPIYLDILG
TEST READOUT: IC50

>>> result("COc1ncc(F)cc1CNc1ccc(Cc2c[nH]c3ncc(C)cc23)c(F)n1")
"> 1000 nM"

###

TARGET OF ASSAY: Ephrin type-A receptor 2 (Homo sapiens, UniProt P29317)
TEST READOUT: IC50

>>> result("COc1ncc(F)cc1CNc1ccc(Cc2c[nH]c3ncc(C)cc23)c(F)n1")
"> 1000 nM"

###

TARGET OF ASSAY: Tyrosine-protein kinase Fyn (Homo sapiens, UniProt P06241)
pIC50: −log10 of the molar value.
TEST READOUT: pIC50

>>> result("COc1ncc(F)cc1CNc1ccc(Cc2c[nH]c3ncc(C)cc23)c(F)n1 [PLX-5622]")
"< 6.00"

###

EXPERIMENTAL DETAILS: Half-life in dog at 1.00 mg/kg, iv administered as single dose
Type: ADME, organism-based, Canis lupus familiaris
APPLIED CONDITIONS: in vivo
TEST READOUT: half-life (h)

>>> result("COc1ncc(F)cc1CNc1ccc(Cc2c[nH]c3ncc(C)cc23)c(F)n1 [PLX-5622]")
15

###

TARGET OF ASSAY: UniProt:Q02763
EXPERIMENTAL DETAILS: Inhibition of TEK (unknown origin)
TEST READOUT: IC50

>>> result("COc1ncc(F)cc1CNc1ccc(Cc2c[nH]c3ncc(C)cc23)c(F)n1")
"> 1000 nM"

###

TARGET OF ASSAY: Proto-oncogene tyrosine-protein kinase receptor Ret (Homo sapiens, UniProt P07949, V804L)
Sequence (P07949 29-1114 V804L limits assumed): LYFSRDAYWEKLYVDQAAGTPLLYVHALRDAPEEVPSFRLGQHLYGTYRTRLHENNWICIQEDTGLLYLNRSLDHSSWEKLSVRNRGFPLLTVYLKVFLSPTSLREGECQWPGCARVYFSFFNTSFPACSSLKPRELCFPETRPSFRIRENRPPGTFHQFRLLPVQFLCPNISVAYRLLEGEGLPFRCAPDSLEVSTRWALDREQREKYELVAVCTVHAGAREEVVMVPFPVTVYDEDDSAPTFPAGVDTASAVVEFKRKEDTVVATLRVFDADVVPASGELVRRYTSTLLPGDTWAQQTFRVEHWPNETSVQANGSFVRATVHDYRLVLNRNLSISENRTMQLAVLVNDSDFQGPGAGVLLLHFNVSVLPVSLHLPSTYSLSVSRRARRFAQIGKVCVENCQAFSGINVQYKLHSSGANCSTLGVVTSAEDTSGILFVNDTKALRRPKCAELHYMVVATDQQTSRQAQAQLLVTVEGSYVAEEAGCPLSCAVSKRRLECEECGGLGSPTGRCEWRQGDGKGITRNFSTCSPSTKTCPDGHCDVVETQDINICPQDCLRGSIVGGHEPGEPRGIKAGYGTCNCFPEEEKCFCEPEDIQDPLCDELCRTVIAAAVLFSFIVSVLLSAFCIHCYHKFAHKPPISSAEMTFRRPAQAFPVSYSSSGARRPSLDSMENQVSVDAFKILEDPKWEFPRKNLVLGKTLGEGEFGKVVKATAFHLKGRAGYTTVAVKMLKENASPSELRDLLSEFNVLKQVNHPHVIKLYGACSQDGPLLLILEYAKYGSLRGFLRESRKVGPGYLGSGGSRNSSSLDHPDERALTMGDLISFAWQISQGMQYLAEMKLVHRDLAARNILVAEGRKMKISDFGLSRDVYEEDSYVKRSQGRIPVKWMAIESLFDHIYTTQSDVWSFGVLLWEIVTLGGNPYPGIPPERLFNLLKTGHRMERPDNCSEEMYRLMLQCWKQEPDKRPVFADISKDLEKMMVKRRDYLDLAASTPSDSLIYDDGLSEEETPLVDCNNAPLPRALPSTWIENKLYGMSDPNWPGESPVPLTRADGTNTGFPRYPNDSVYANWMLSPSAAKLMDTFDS
EXPERIMENTAL DETAILS: Inhibition of RET V804L mutant (unknown origin)
TEST READOUT: IC50

>>> result("COc1ncc(F)cc1CNc1ccc(Cc2c[nH]c3ncc(C)cc23)c(F)n1 [PLX-5622]")
"> 1000 nM"
